Values compiled from ChEMBL document CHEMBL3286281.

- Tested Target: Carbonic anhydrase 2 (Bos taurus)
- Method Summary: Inhibition of bovine erythrocytes carbonic anhydrase 2 at 50 uM
Recorded Metric: inhibition (%)

smiles_str=CC1(C)[C@@H](O)CC[C@]2(C)[C@H]3C(=O)C=C4[C@@H]5C[C@@](C)(C(=O)OCCCCCCBr)CC[C@]5(C)CC[C@@]4(C)[C@]3(C)CC[C@@H]12 recorded_metric=inhibition numeric_result=0
smiles_str=COC(=O)[C@@]1(C)CC[C@]2(C)CC[C@]3(C)C(=CC(=O)[C@@H]4[C@@]5(C)CC[C@H](OC(=O)[C@@H](N)CCN)C(C)(C)[C@@H]5CC[C@]43C)[C@@H]2C1 recorded_metric=inhibition numeric_result=0
smiles_str=COC(=O)[C@@]1(C)CC[C@]2(C)CC[C@]3(C)C(=CC(=O)[C@@H]4[C@@]5(C)CC[C@H](OC(=O)[C@@H](N)CCC(=O)OCc6ccccc6)C(C)(C)[C@@H]5CC[C@]43C)[C@@H]2C1 recorded_metric=inhibition numeric_result=15
smiles_str=CC1(C)[C@@H](O)CC[C@]2(C)[C@H]3C(=O)C=C4[C@@H]5C[C@@](C)(C(=O)NCCCN)CC[C@]5(C)CC[C@@]4(C)[C@]3(C)CC[C@@H]12 recorded_metric=inhibition numeric_result=0

---

This document collects Ki values reported for Acetylcholinesterase (Electrophorus electricus, UniProt O42275).
Recorded Metric: Ki (µM)

smiles_str=CC1(C)[C@@H](O)CC[C@]2(C)[C@H]3C(=O)C=C4[C@@H]5C[C@@](C)(C(=O)NCCCN)CC[C@]5(C)CC[C@@]4(C)[C@]3(C)CC[C@@H]12 tested_target="Acetylcholinesterase (Electrophorus electricus, UniProt O42275)" readout_qualifier=> numeric_result=100
smiles_str=COC(=O)[C@@]1(C)CC[C@]2(C)CC[C@]3(C)C(=CC(=O)[C@@H]4[C@@]5(C)CC[C@H](OC(=O)[C@@H](N)CCCCN)C(C)(C)[C@@H]5CC[C@]43C)[C@@H]2C1 tested_target="Acetylcholinesterase (Electrophorus electricus, UniProt O42275)" readout_qualifier== numeric_result=20
smiles_str=C[C@H](N)C(=O)O[C@H]1CC[C@]2(C)[C@H]3C(=O)C=C4[C@@H]5C[C@@](C)(C(=O)O)CC[C@]5(C)CC[C@@]4(C)[C@]3(C)CC[C@H]2C1(C)C tested_target="Acetylcholinesterase (Electrophorus electricus, UniProt O42275)" readout_qualifier== numeric_result=24
smiles_str=COC(=O)[C@@]1(C)CC[C@]2(C)CC[C@]3(C)C(=CC(=O)[C@@H]4[C@@]5(C)CC[C@H](OC(=O)[C@@H](N)CCC(=O)O)C(C)(C)[C@@H]5CC[C@]43C)[C@@H]2C1 tested_target="Acetylcholinesterase (Electrophorus electricus, UniProt O42275)" readout_qualifier== numeric_result=18.9
smiles_str=CC1(C)[C@@H](O)CC[C@]2(C)[C@H]3C(=O)C=C4[C@@H]5C[C@@](C)(C(=O)NCCCCCN)CC[C@]5(C)CC[C@@]4(C)[C@]3(C)CC[C@@H]12 tested_target="Acetylcholinesterase (Electrophorus electricus, UniProt O42275)" readout_qualifier=> numeric_result=100
smiles_str=CC1(C)[C@@H](O)CC[C@]2(C)[C@H]3C(=O)C=C4[C@@H]5C[C@@](C)(C(=O)OCCBr)CC[C@]5(C)CC[C@@]4(C)[C@]3(C)CC[C@@H]12 tested_target="Acetylcholinesterase (Electrophorus electricus, UniProt O42275)" readout_qualifier== numeric_result=23.8
smiles_str=COC(=O)[C@@]1(C)CC[C@]2(C)CC[C@]3(C)C(=CC(=O)[C@@H]4[C@@]5(C)CC[C@H](OC(=O)[C@@H](N)CCC(=O)OCc6ccccc6)C(C)(C)[C@@H]5CC[C@]43C)[C@@H]2C1 tested_target="Acetylcholinesterase (Electrophorus electricus, UniProt O42275)" readout_qualifier== numeric_result=16.1
smiles_str=CC1(C)[C@@H](O)CC[C@]2(C)[C@H]3C(=O)C=C4[C@@H]5C[C@@](C)(C(=O)On6nnc7ccccc76)CC[C@]5(C)CC[C@@]4(C)[C@]3(C)CC[C@@H]12 tested_target="Acetylcholinesterase (Electrophorus electricus, UniProt O42275)" readout_qualifier=> numeric_result=20
smiles_str=COC(=O)[C@@]1(C)CC[C@]2(C)CC[C@]3(C)C(=CC(=O)[C@@H]4[C@@]5(C)CC[C@H](OC(=O)[C@@H](N)CSCc6ccccc6)C(C)(C)[C@@H]5CC[C@]43C)[C@@H]2C1 tested_target="Acetylcholinesterase (Electrophorus electricus, UniProt O42275)" readout_qualifier== numeric_result=40.6
smiles_str=CC1(C)[C@@H](O)CC[C@]2(C)[C@H]3C(=O)C=C4[C@@H]5C[C@@](C)(C(=O)O)CC[C@]5(C)CC[C@@]4(C)[C@]3(C)CC[C@@H]12 tested_target="Acetylcholinesterase (Electrophorus electricus, UniProt O42275)" readout_qualifier=> numeric_result=100
smiles_str=CC1(C)[C@@H](O)CC[C@]2(C)[C@H]3C(=O)C=C4[C@@H]5C[C@@](C)(C(=O)NCCCCN)CC[C@]5(C)CC[C@@]4(C)[C@]3(C)CC[C@@H]12 tested_target="Acetylcholinesterase (Electrophorus electricus, UniProt O42275)" readout_qualifier== numeric_result=41.8
